- MEASUREMENT TARGET: human PCSK9 (proprotein convertase subtilisin kexin type 9) (human, UniProt Q8NBP7 31-692)
- Sequence (Q8NBP7 31-692 limits assumed): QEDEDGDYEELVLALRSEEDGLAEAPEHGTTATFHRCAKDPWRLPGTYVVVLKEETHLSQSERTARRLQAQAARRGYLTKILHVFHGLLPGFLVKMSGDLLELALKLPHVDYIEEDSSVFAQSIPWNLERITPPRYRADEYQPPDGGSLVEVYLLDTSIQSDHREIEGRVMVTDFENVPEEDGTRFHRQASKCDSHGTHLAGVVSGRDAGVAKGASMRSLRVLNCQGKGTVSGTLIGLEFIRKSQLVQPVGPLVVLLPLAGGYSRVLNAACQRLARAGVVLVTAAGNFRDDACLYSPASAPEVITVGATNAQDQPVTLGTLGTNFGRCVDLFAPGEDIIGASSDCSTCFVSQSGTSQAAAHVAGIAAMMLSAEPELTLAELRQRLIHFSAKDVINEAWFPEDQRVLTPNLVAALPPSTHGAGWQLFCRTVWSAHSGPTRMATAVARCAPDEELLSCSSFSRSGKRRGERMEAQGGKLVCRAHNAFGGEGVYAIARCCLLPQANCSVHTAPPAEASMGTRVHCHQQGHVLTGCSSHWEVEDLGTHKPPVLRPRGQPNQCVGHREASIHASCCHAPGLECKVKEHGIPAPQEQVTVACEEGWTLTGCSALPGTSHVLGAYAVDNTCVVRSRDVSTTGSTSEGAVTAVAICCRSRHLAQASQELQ
- PROTOCOL DESCRIPTION: cell-based or functional assay
QUANTITY: LDLR Depletion (% inhibition at 75 nM) (%)
Kindly answer with a numeric value in %, unit omitted.

Completed entries (count: 3):
1) 2451H07 (designed binder) MGITDVPRDLEVVAATPTSLLISWNPPDVNYGYYRITYGETGGNSPLQEFTVPVSKGTATISGLKPGVDYTITVYAVEYPYAHAGYYHRPISINYRTEIDKPSQHHHHHH | 88.8
2) 2011H05 (designed binder, also called ATI001091) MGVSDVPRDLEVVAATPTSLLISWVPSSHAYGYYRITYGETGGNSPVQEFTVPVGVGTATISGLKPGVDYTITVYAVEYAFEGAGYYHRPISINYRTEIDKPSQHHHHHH | 198
3) 2382D03 (designed binder) MGVSDVPRDLEVVAATPTSLLISWDAPADEAYGYYRITYGETGGNSPVQEFTVPVSKGTATISGLKPGVDYTITVYAVEFDFPGAGYYHRPISINYRTEIDKPSQHHHHHH | 80.4

With those in mind, consider the next binder.
Note down LDLR Depletion (% inhibition at 75 nM) recorded for 2451C06 (designed binder) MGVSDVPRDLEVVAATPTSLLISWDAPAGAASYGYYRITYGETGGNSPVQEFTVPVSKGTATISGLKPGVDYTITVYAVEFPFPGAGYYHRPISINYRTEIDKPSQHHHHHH
89.4
